Numbers sourced from the Immune Epitope Database (IEDB).

pKd values, listed per item
- Target entity: HLA-A*69:01
- Procedure details: IEDB peptide-MHC binding, purified MHC/competitive/fluorescence; filed as Kd, often an IC50 or EC50 that approximates it; bounds were set here for any values at or beyond the usual limits of such assays
- Measurement conditions: source organism: Reston ebolavirus
pKd: −log10 of the molar value.

GVPPKVVSY | ≤ 4.70

Could you tell me which pKd is on file for ALYEENALK ? ≤ 4.70

* * *

- Target entity: HLA-A*01:01
- Procedure details: IEDB peptide-MHC binding, purified MHC/competitive/radioactivity; filed as Kd, often an IC50 or EC50 that approximates it; bounds were set here for any values at or beyond the usual limits of such assays
- Measurement conditions: source organism: Dengue virus 4 Philippines/H241/1956
Endpoint: pKd
For clarity, pKd is expressed as the negative log10 of concentration in mol/L.

API: value(readout=pKd, system=HLA-A*01:01) for record PSVEVKLPDY 5.12
